Read-out: Insulin-like growth factor-binding protein 1 (IGFBP1), IGFBP1 (gene 3484)
Assay: LTEA_HepaRG_IGFBP1: Life Technologies and Expression Analysis (LTEA) Assay for Insulin-like growth factor-binding protein 1 (IGFBP1) using HepaRG (AID 2283508)
Details: mRNA level, 48 h; actives raise or lower the signal
Active and inactive are the calls of the source. How the source made its calls: active means hit-call score of the fitted dose curve at least 0.9, where 1 is the maximum; inactive means score below 0.9.
Possible outcomes: 1 (yes) for active, 0 (no) for inactive

| compound | classification |
| --- | --- |
| CCc1cc(C2=C(C(=O)O)N(c3ccccc3C(F)(F)F)S(=O)(=O)c3ccccc32)cc2c1OCO2 | 1 (yes) |
| NCCOCCOCCN | 0 (no) |
| CCC(C)N(C)C(=O)c1cc2ccccc2c(-c2ccccc2Cl)n1 (stereo unspecified) | 1 (yes) |
| O=C1CCCCC1 | 0 (no) |
| CC(=O)O | 0 (no) |
| N[C@@H](Cc1c[nH]c2ccccc12)C(=O)O | 0 (no) |
| Cc1occc(=O)c1O | 0 (no) |
| S=c1[nH]c2ccccc2s1 | 0 (no) |
| CCCCOC(=O)CCCCC(=O)OCCCC | 0 (no) |
| c1ccc2occc2c1 | 0 (no) |
| CC(=O)[C@@]1(O)CC[C@H]2[C@@H]3CCC4=CC(=O)CC[C@]4(C)[C@H]3CC[C@@]21C | 0 (no) |
